System: DU145 (prostate cancer)
protocol: Effect of compounds on tumor cell lines (assay of Latham et al.), DU145
Assay type: cell-based
experimental setup: DU145 cells, 96 hours after treatment, 1 μM to 100 μM; read-out: DU 145 potency (IC50)
endpoint label: IC50

O=C(/C(=C\c1ccc(O)c([N+](=O)[O-])c1)SCc1ccc(Br)cc1)c1ccc(O)cc1O :: > 100 µM
O=C(O)c1ccc(C=C(SCc2ccc(Cl)cc2)C(=O)c2ccc(C(=O)O)cc2)cc1 :: > 100 µM
CCOC(=O)c1c(C)[nH]c(/C=C(/SCc2ccc(Br)cc2)C(=O)c2ccc(Br)cc2)c1C :: 50 to 100 µM
COc1ccc(/C=C(/SCc2ccc(OC)cc2)C(=O)c2ccc(Cl)cc2)cc1 :: 10 to 25 µM
